test system: Pseudomonas aeruginosa; test: Antibacterial activity against multidrug resistant Pseudomonas aeruginosa BAA 2109 assessed as inhibition of bacterial growth incubated for 24 hrs in MHI medium by twofold serial dilution method; type: functional
PROPERTY MEASURED: MIC

O=C1O[C@@H](CO)CN1c1ccc(-c2ccncc2)c(F)c1 ... > 200 µM
O=C1O[C@@H](CO)CN1c1ccc(-c2cccnc2)c(F)c1 ... > 200 µM
NCc1ccc(-c2ccc(N3C[C@H](CO)OC3=O)cc2F)cc1 ... > 200 µM
NCc1ccc(-c2ccc(N3C[C@H](CO)OC3=O)cc2F)cc1O ... > 200 µM
C[n+]1ccc(-c2ccc(-c3ccc(N4C[C@H](CO)OC4=O)cc3F)cc2)cc1 ... > 200 µM

Prompt: Field request: MIC | item: CC(=O)NC[C@H]1CN(c2ccc(N3CCOCC3)c(F)c2)C(=O)O1
Completion: > 200 µM

Prompt: Field request: MIC | item: O=C1O[C@@H](CO)CN1c1ccc(-c2cccc(CO)c2)c(F)c1
Completion: > 200 µM
